# procedureSummary: Human HepG2 cell viability assay in 384 well format
# Assay type: toxicity, cell-based
# Parameters: dose 125 nL, time 70.5 hour; concentration not given beside the values
# measurementContext: HepG2 cells, read-out: Inhibition
readoutType: cytotoxicity at 70.5 h (%)

>>> print(df.to_string())
                                    compound             readouttype  observedvalue
 0         CC(C)n1cc(C(=O)NCCCc2csc(N)n2)cn1  cytotoxicity at 70.5 h          -9.21
 1  C[C@@H]1CN(S(=O)(=O)N2CCOCC2)C[C@@]1(O)C1CC1  cytotoxicity at 70.5 h          -2.98
 2  O=C(NCC(O)c1ccsc1)c1sccc1OC(F)F (configuration not stated)  cytotoxicity at 70.5 h          -13.8
 3  Cc1n[nH]c(C(=O)NCc2ccnc(OCC(F)(F)F)c2)c1Br  cytotoxicity at 70.5 h          -4.39
 4  CCS(=O)(=O)CCNC(=O)NC(C)c1ccc(C)s1 (configuration not stated)  cytotoxicity at 70.5 h          -8.94
 5  CC(C)(CNC(=O)C1CCCCN1S(C)(=O)=O)N1CCOCC1 (configuration not stated)  cytotoxicity at 70.5 h             38
 6  COCC1Cn2nnc(-c3cnn(C)c3)c2CN1Cc1ccoc1 (configuration not stated)  cytotoxicity at 70.5 h          -8.84
 7  CN(CCc1ccccc1)Cc1cnc(C2(C)CCCCO2)nc1 (configuration not stated)  cytotoxicity at 70.5 h           1.38
 8  CN1CCCN(S(=O)(=O)c2cn(C)cn2)c2cc(F)ccc21  cytotoxicity at 70.5 h           4.76
 9   CCOc1cc(/C=C/c2ncc(C(=O)O)s2)cc(Cl)c1OC  cytotoxicity at 70.5 h           9.41
10  CCOC(=O)CC1CCCCN1C(=O)c1cc(C)oc1C (configuration not stated)  cytotoxicity at 70.5 h           3.76
11  Cc1cc(Nc2cnccn2)cc(C2CCCN2)n1 (configuration not stated)  cytotoxicity at 70.5 h           12.2

====

# procedureSummary: Human HepG2 cell viability assay in 384 well format
# Assay type: toxicity, cell-based
# Set-up: dose 125 nL, time 70.5 hour; concentration not given beside the values
# measurementContext: HepG2 cells, read-out: Inhibition
Listed next: entries and their corresponding cytotoxicity at 70.5 h.
readoutType: cytotoxicity at 70.5 h (%)

In [3]: df
Out[3]:
                                   molecule  observedvalue
0           COC(=O)c1cccc(NCC(=O)NC(N)=O)c1           12.1
1  O=C(CN1CCCC1c1nc(Cc2ccc(F)cc2)no1)NC1CC1 (stereo unspecified)          0.125
2  CC(C)Cc1noc(CN2CCCC(Cn3cncn3)C2)n1 (stereo unspecified)           3.45
3   CC(=O)Nc1ccc(S(=O)(=O)Nc2c(F)cccc2F)cc1           1.02
4      CCOc1nn(CC)cc1-c1nnc(SCc2cccnc2)n1CC          -7.15
5     CCn1cnnc1CNC(=O)N(C)Cc1ccc2c(c1)OCCO2           6.83
